# Tested on: U2OS
# experimentNotes: Multiplex assay against U2OS
# Format: toxicity, cell-based
# statedConditions: human, 24 h, 10 µM, compound concentration 10 uM, replicate 2
For each of the molecules below, state its Population Mitotic Cells (%).
# output: bare number, implied unit %

[Q] Kindly state the measured Population Mitotic Cells (%) obtained for Cc1cc(O)c(-c2ccc([C@@H](C)CN(C)C)cc2)c2c1[nH]c(=O)c1sccc12 with U2OS.
[A] 17

[Q] Kindly state the measured Population Mitotic Cells (%) obtained for Cl.Cl.OCCOCCN1CCN(C(c2ccccc2)c2ccc(Cl)cc2)CC1 (stereo not drawn) [HYDROXYZINE HYDROCHLORIDE] with U2OS.
[A] 38

[Q] Kindly state the measured Population Mitotic Cells (%) obtained for CCCCCCNC(=O)Nc1ccc(S(=O)(=O)Nc2ccc(CCNC[C@H](O)COc3ccc(O)cc3)cc2)cc1 [L-755507] with U2OS.
[A] 11

[Q] Kindly state the measured Population Mitotic Cells (%) obtained for COC(c1ccccc1)(c1ccccc1)[C@H](Oc1nc(C)cc(C)n1)C(=O)O [AMBRISENTAN] with U2OS.
[A] 20

[Q] Kindly state the measured Population Mitotic Cells (%) obtained for CC(C)C[C@H](CO)Nc1nc(S[C@@H](C)c2ccccc2)nc2nc(N)sc12 [AZD-8797] with U2OS.
[A] 0

[Q] Kindly state the measured Population Mitotic Cells (%) obtained for Cc1cc(-c2ccc3c(c2)CC[C@H]3N2CC3(CCN(C(=O)Cc4cn5cc(C)sc5n4)CC3)C2)ncn1 [PF-5190457] with U2OS.
[A] 15

[Q] Kindly state the measured Population Mitotic Cells (%) obtained for C=CCN1C[C@H](C(=O)N(CCCN(C)C)C(=O)NCC)C[C@@H]2c3cccc4[nH]cc(c34)C[C@H]21 [CABERGOLINE] with U2OS.
[A] 11

[Q] Kindly state the measured Population Mitotic Cells (%) obtained for COc1cc(Nc2ncc3c(n2)-c2ccc(Cl)cc2C(c2c(F)cccc2OC)=NC3)ccc1C(=O)O [ALISERTIB] with U2OS.
[A] 9

====

# Test system: U2OS
# experimentNotes: Multiplex assay against U2OS
# Type: toxicity, cell-based
# statedConditions: human, 12 h, 1 µM, compound concentration 1 uM, replicate 2
Mark not satisfied for Population Mitotic Cells (%) values under 10%, and satisfied for everything at or above.

[Q] Decide: Population Mitotic Cells (%) of CCc1nn2c(C)cc(C)nc2c1Cc1ccc(-c2nnc(C3CCNCC3)o2)cc1 >= 10%?
[A] satisfied

[Q] Decide: Population Mitotic Cells (%) of COc1cc(Nc2ncc3c(n2)-c2ccc(Cl)cc2C(c2c(F)cccc2OC)=NC3)ccc1C(=O)O [ALISERTIB] >= 10%?
[A] satisfied

[Q] Decide: Population Mitotic Cells (%) of CN1CCC(C(=O)c2cccc(NC(=O)c3c(F)cc(F)cc3F)n2)CC1 >= 10%?
[A] satisfied

[Q] Decide: Population Mitotic Cells (%) of CC(C)(O)C(=O)N1CCN(c2ccc(C(F)(F)F)c(C3=C(c4c[nH]c5ccccc45)C(=O)NC3=O)c2)CC1 >= 10%?
[A] not satisfied

[Q] Decide: Population Mitotic Cells (%) of O=C(Nc1cc(-c2ccccc2)nn1-c1ccccc1F)c1ccc([N+](=O)[O-])cc1 >= 10%?
[A] not satisfied

====

# Test system: Fibroblast
# experimentNotes: Multiplex assay against human fibroblast
# Format: toxicity, cell-based
# statedConditions: 12 h, 10 µM, compound concentration 10 uM, replicate 1
Non-standard residues stand in square brackets, D forms with d. Residues, ends and D or L forms follow the SMILES beside them.
# Population Tubulin-Different-Phenotype (%) binned as bottom range: < 40%; center range: ≥ 40% and < 80%; top range: ≥ 80%

[Q] Class label required: O=c1ccc2ccc(OCCCCN3CCN(c4cccc5sccc45)CC3)cc2[nH]1
[A] top range

[Q] Class label required: O=C(Nc1cc(-c2ccccc2)nn1-c1ccccc1F)c1ccc([N+](=O)[O-])cc1
[A] center range

[Q] Class label required: CC(C)(O)C(=O)N1CCN(c2ccc(C(F)(F)F)c(C3=C(c4c[nH]c5ccccc45)C(=O)NC3=O)c2)CC1
[A] top range

[Q] Class label required: CCCCCCNC(=O)Nc1ccc(S(=O)(=O)Nc2ccc(CCNC[C@H](O)COc3ccc(O)cc3)cc2)cc1
[A] center range

[Q] Class label required: O=C(NCCNCC(O)COc1ccc(O)cc1)N1CCOCC1.O=C(NCCNCC(O)COc1ccc(O)cc1)N1CCOCC1.O=C(O)/C=C/C(=O)O (stereo not given) [XAMOTEROL FUMARATE]
[A] bottom range

[Q] Class label required: Cc1cc(NC(=O)NCCN2CCC(O)(Cc3ccccc3)CC2)c2ccccc2n1
[A] bottom range

[Q] Class label required: COc1cc(OC2CCN(C(C)=O)CC2)ccc1C(=O)N1CCC(N2C(=O)OCc3ccccc32)CC1
[A] center range

[Q] Class label required: CN(C)C(=O)Cn1cc(-c2ccc(-c3nnc4ccccn34)cc2)cn1
[A] bottom range

[Q] Class label required: Cc1sc2c(c1C)C(c1ccc(Cl)cc1)=N[C@H](CC(=O)OC(C)(C)C)c1nnc(C)n1-2
[A] top range

[Q] Class label required: C[C@@H]1CC(=O)Nc2cccc(-c3ccc4c(c3)c(-c3cnn(C)c3)nn4C)c2N1
[A] center range

[Q] Class label required: CCC(=O)OCC(=O)[C@@]1(OC(=O)CC)[C@@H](C)C[C@H]2[C@@H]3CCC4=CC(=O)C=C[C@]4(C)[C@@]3(Cl)[C@@H](O)C[C@@]21C [BECLOMETHASONE DIPROPIONATE]
[A] top range

[Q] Class label required: Cl.Cl.OCCOCCN1CCN(C(c2ccccc2)c2ccc(Cl)cc2)CC1 (stereo not given) [HYDROXYZINE HYDROCHLORIDE]
[A] center range

[Q] Class label required: CC(C)C[C@@H]1NC(=O)[C@@H](C(C)C)NC(=O)[C@@H]2CCCN2C(=O)[C@@H](CC(=O)O)NC(=O)[C@@H](Cc2c[nH]c3ccccc23)NC1=O [BQ-123] (cyclo(L[dW][dD]P[dV]))
[A] bottom range

[Q] Class label required: COc1cc(C(=O)N2CC[C@@H](O)[C@@H](N)C2)cc2nc(-c3cc4ccccc4n3CC3CC3)n(C)c12.Cl
[A] top range
